# Test system: NCI-H23
# protocol text: NCI tumour cell line growth inhibition, 48 h
The source made the active and inactive calls. Rule as the data show it: active = GI50 up to about 1.1 µM and inactive = higher.
Thanks in advance; please answer with one of these: true (1) = active, false (0) = inactive

Solved cases below.
CCC(=O)Nc1ccc(N2C(=O)C(Cl)C2c2ccc(SC)cc2)cc1 (stereo unspecified)	false (0)
Oc1c(/N=N\c2ccccc2)c2cccc3ccc4cccc1c4c32	false (0)
CN(C)CCN1C(=O)CC[C@@]2(C)C1=CC[C@@H]1[C@@H]2CC[C@@]2(C)[C@H]1CC[C@]2(C)O	false (0)

Could you kindly confirm the outcome this assay logged for O=C(N/N=C\c1cccc2ccccc12)Nc1ccccc1 ? false (0)

Moving on to CN(/N=C/c1cccs1)c1ccc(Cl)cc1[N+](=O)[O-] false (0)

Moving on to COC(=O)C(=O)C(C(=O)C=C(C)C)C(=O)C(=O)Nc1cccc(C(C)=O)c1 (stereo unspecified) false (0)

Moving on to COC(=O)/C=C(\C)CC(O)/C=C(\C)CCC=C(C)C (stereo unspecified) false (0)

Moving on to Nc1ccn(C2CCC(CO)O2)c(=O)n1 (stereo unspecified) false (0)
